- TEST_SYSTEM: ROMK (Kir1.1) channel (Homo sapiens (Human), UniProt P48048)
- Sequence (P48048 whole entry): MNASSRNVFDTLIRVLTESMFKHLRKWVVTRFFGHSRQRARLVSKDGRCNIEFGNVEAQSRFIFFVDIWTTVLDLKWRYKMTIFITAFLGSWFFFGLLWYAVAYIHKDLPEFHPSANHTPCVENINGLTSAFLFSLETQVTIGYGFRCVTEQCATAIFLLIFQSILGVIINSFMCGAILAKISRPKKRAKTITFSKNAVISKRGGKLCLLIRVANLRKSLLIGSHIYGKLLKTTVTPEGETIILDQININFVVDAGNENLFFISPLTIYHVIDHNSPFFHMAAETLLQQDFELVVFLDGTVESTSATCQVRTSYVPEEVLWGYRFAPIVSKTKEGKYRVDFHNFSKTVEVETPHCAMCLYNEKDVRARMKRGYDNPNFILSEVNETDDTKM
- MEASUREMENT_PROTOCOL: Thallium Flux Assay
// returns n unless IC50 is strictly below 0.09 µM, in which case y

> print(dat)
                                   molecule  group.label
1  CC1=C(N2CC[C@]3(CC[C@H](N(C)C[C@H](O)c4ccc5c(c4C)COC5=O)CC3)C2=O)COC1=O            y
2  CC1=C(N2CC[C@]3(CC[C@@H](N[C@H](C)c4ccc5c(c4)Cn4nnnc4-5)CC3)C2=O)COC1=O            n
3  CN(Cc1ccc(-n2cnnn2)nn1)C1CCC2(CC1)CCN(C1=CC(=O)OC1)C2=O (centres unmarked)            y

Record CC1=C(N2CC[C@]3(CC[C@@H](NCc4ccc5c(c4)Cn4nnnc4-5)CC3)C2=O)COC1=O : is its IC50 strictly below 0.09 µM?
n
